B1: RAB40A (parent)
chain: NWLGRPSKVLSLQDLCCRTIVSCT

Variants of: B1
Assay: protein stability index of a GFP-peptide fusion (GPS, HEK-293T) (PSI 1-6); higher = more stable;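 note: lentivirally expressed fusions sorted by FACS into six bins by GFP to DsRed ratio, PSI derived from sequencing read proportions per bin multiplied by bin number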
Conditions: c terminus: a fixed tail appended
Note to self: values exactly at 2 are Condition met. So protein stability index at or above 2 is Condition met, below is Condition not met.

Consider the following illustrative entries.
residue_change=S22I classification="Condition not met"
residue_change=S22Q classification="Condition met"
residue_change=L3V classification="Condition met"

Quick check, protein stability index >= 2? D14C
Condition not met

Quick check, protein stability index >= 2? T19I
Condition met

Ref: the supplement of paper PMC10567573
